The entries below come with measured neutralization IC95 values attached.
- measurement target: SARS-CoV-2 Spike protein (SARS-CoV-2 Wuhan-Hu-1, UniProt P0DTC2 14-1273)
- test name: cell-based or functional assay

Example entries begin here.
binder | neutralization IC95
S2D22 (antibody, V domains shown) VH: EVHLVESGGGLVQPGGSLKLSCAASGFTFSGSAMHWVRQASGKGLEWVGRIRTKANTYATAYAASVKGRFTISRDDSKNTAYLQMNSLKTEDTAVYYCTRPAPYDFLSDYYTGEQLDYWGQGTLVTVSS VL: QSVLTQPPSVSGAPGQRVTISCTGSSSNIGAGYDVHWYQQLPGAAPKLLIYGNSNRPSGVPDRFSGSKSGTSASLAITGLQAEDEADYYCQSYDSSLSGPEVFGTGTKVTVL | 14.7 µg/mL
S2D25 (antibody, V domains shown) VH: EVQLVESGGGLVQPGGSLRLSCAASGFPFNIYAMSWVRQAPGKGLEWVSGISGSGGSTYYADSVRGRFAISRDNSKNTLYLQMNSLRAEDTAEYYCAKDLWFREILHGMDVWGKGTTVTVSS VL: QSALTQPASVSGSPGQSITISCTGTSSDVGGYNYVSWYQHHPGRAPKLMIYEVSNRPSGVSNRFSGSKSGNTASLSISGLQAEDEADYYCSSYTSSSTYVFGAGTKVTVL | 0.228 µg/mL

# return recorded neutralization IC95 for entry S2D32 (antibody, V domains shown) VH: EVQLVESGGGLVQPGRSLRLSCTSSGFTFGDYPMSWFRQAPGKGLEWVGFIRSKAYGGTTQYAASVKGRFTISRDDSKNIAYLQMNSLKTEDTAVYYCTREMWDCSGGRCYSPFFDYWGQGTLVTVSS VL: EIVMTQSPATLSVSPGERATLSCRASQTVSSNLAWYQQKPGQAPRLLIYGASTRATGIPARFSGSGSGTEFTLTISSLQSEDFAVYYCQQYNNWRTFGQGTKLEIK 0.2 µg/mL
